Where do the numbers come from? From the OligoGym collection.

# target.or.system: APOL1
# run.conditions: ASO, A431, 0.0156 µM
After the bases stand the sugars from the 5' end (letter, count) and the backbone: PS all phosphorothioate, else s phosphorothioate and o phosphodiester by linkage. Methylation of C is not given here. e = 2'-O-(2-methoxyethyl) (MOE); k = constrained ethyl (cEt); d = 2'-deoxy (DNA)
Assign MET to entries whose target mRNA inhibition meets or exceeds 20%; assign NOT MET to the rest.

[[record]]
macromolecule_sequence = "CTTTAAACTCAGGTGA (sugars k2 d4 e3 k2 d5, PS)"
class_label = "NOT MET"

[[record]]
macromolecule_sequence = "GTTATGAAATTATTGG (sugars k3 d4 k3 e1 d5, PS)"
class_label = "MET"

[[record]]
macromolecule_sequence = "GAGTATTGTTTTTGTG (sugars k2 d4 e3 k2 d5, PS)"
class_label = "MET"

[[record]]
macromolecule_sequence = "GGAATTATGGAATTGC (sugars k2 d4 e3 k2 d5, PS)"
class_label = "NOT MET"

[[record]]
macromolecule_sequence = "TTTTGTAAGTGCAACC (sugars kkkddddkekeddddd, PS)"
class_label = "MET"


IN: Has TGAGTATTGTTTTTGT (sugars k3 d4 k3 e1 d5, PS) a recorded target mRNA inhibition greater than or equal to 20%?
OUT: MET

IN: State whether the measured target mRNA inhibition reaches 20%, counting equality as reaching it, for CGTCAATATATTCTTT (sugars kddddkekekeddddd, PS)
OUT: NOT MET

IN: Answer whether target mRNA inhibition of CGTCAATATATTCTTT (sugars k3 d5 k3 d5, PS) is greater than or equal to 20%.
OUT: MET

IN: Answer whether target mRNA inhibition of GAATTATGGAATTGCA (sugars kkdddddkekeddddd, PS) is greater than or equal to 20%.
OUT: NOT MET

IN: Item TGAGTATTGTTTTTGT (sugars kkkddddkekeddddd, PS) with target mRNA inhibition of 20% or above?
OUT: NOT MET
